Target: NAD-dependent protein deacylase sirtuin-6 (Homo sapiens) (UniProt Q8N6T7)
Sequence (Q8N6T7 whole entry, the tested form may be a part): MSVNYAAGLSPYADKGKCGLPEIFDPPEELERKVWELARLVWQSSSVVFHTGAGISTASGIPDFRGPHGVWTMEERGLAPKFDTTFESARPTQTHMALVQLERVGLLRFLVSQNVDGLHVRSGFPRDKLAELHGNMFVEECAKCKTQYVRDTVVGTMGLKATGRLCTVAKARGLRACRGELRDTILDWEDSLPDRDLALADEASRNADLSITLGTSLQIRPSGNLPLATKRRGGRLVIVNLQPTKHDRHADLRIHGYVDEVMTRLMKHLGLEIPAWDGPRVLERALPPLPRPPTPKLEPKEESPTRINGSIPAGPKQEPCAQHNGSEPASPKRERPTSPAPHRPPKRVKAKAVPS
Assay: Inhibition of recombinant human N-terminal polyhis-tagged SIRT6 (1 to 355 residues) defatty-acylase activity expressed in Escherichia coli at 2 uM using SFP3 as substrate measured at 5 mins interval for 60 mins in presence of NAD+ by fluorescence assay relative to control
Counter-ions that a name gives are not always drawn. Residues, ends and D or L forms follow the SMILES beside them. *: point of attachment. X3 = CN(C)c1ccc(/N=N/c2ccc(CCC(=O)*)cc2)cc1; Tfa = O=C(C(F)(F)F)*
measureName: inhibition (%)

molecule	experimentalSystem	inhibition [%]
CCCCCCCCCCCCCC(=S)NCCCC[C@H](NC(=O)OCc1ccccc1)C(=O)Nc1ccccc1	NAD-dependent protein deacylase sirtuin-6 (Homo sapiens) (UniProt Q8N6T7)	-3.3
CC[C@H](C)[C@H](NC(=O)[C@H](CCCNC(=N)N)NC(C)=O)C(=O)N[C@@H](CCCCNC(=O)C(F)(F)F)C(=O)N[C@@H](CCCNC(=N)N)C(=O)N[C@@H](Cc1ccc(O)cc1)C(N)=O (Ac-RIK(Tfa)RY-NH2)	NAD-dependent protein deacylase sirtuin-6 (Homo sapiens) (UniProt Q8N6T7)	3.1
C[C@H](NC(=O)[C@H](CCCCNC(=O)Cc1ccc(/N=N/c2ccc(OCCc3ccccc3)cc2)cc1)NC(=O)OCc1ccccc1)C(N)=O	NAD-dependent protein deacylase sirtuin-6 (Homo sapiens) (UniProt Q8N6T7)	-0.32

(a) CC[C@H](C)[C@H](NC(=O)[C@H](CCCNC(=N)N)NC(C)=O)C(=O)N[C@@H](CCCCNC(=O)CCc1ccc(/N=N/c2ccc(N(C)C)cc2)cc1)C(=O)N[C@@H](CCCNC(=N)N)C(=O)N[C@@H](Cc1ccc(O)cc1)C(N)=O (Ac-RIK(X3)RY-NH2)
(b) CCCCCCCCCCCCCC(=O)NCCCC[C@H](NC(=O)OCc1ccccc1)C(=O)Nc1ccccc1
# argmax over inhibition for candidates a and b Give the chosen item's label as your response. a

---

Molecular target: NAD-dependent protein deacetylase sirtuin-1 (Homo sapiens) (UniProt Q96EB6)
Sequence (Q96EB6 whole entry): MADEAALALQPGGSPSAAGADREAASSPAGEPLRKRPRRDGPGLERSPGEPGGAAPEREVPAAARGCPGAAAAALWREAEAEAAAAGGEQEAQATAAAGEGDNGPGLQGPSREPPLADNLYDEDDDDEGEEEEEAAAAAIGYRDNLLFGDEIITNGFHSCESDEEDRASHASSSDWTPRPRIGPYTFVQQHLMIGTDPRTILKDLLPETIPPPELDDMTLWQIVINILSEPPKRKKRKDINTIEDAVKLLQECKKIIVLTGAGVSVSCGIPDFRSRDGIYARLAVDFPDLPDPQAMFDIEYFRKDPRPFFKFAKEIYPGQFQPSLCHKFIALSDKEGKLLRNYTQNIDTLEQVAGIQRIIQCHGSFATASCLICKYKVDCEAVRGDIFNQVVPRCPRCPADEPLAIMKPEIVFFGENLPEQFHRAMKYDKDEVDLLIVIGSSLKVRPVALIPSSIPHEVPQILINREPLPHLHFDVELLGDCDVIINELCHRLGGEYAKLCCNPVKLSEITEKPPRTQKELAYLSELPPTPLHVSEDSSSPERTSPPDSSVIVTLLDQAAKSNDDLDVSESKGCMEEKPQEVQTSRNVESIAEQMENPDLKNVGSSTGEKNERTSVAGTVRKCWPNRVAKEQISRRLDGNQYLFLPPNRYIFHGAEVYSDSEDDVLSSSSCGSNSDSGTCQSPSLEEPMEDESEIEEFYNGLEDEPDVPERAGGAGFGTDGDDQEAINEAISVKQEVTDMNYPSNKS
Test: Inhibition of recombinant human C-terminal His6-tagged SIRT1 (Met1 to Ser747 residues) defatty-acylase activity expressed in Escherichia coli at 2 uM using SFP3 as substrate measured at 5 mins interval for 60 mins in presence of NAD+ by fluorescence assay relative to control
Counter-ions that a name gives are not always drawn. Residues, ends and D or L forms follow the SMILES beside them. *: point of attachment. X2 = CN(C)c1ccc(/N=N/c2ccc(C(=O)*)cc2)cc1; Tfa = O=C(C(F)(F)F)*
measureName: inhibition (%)

compound	inhibition / %
CC[C@H](C)[C@H](NC(=O)[C@H](CCCNC(=N)N)NC(C)=O)C(=O)N[C@@H](CCCCNC(=O)C(F)(F)F)C(=O)N[C@@H](CCCNC(=N)N)C(=O)N[C@@H](Cc1ccc(O)cc1)C(N)=O (Ac-RIK(Tfa)RY-NH2)	16

(I) CC[C@H](C)[C@H](NC(=O)[C@@H](NC(=O)[C@H](CCCCNC(=O)c1ccc(/N=N/c2ccc(N(C)C)cc2)cc1)NC(=O)[C@H](CC(=O)O)NC(=O)[C@H](CO)NC(C)=O)[C@@H](C)O)C(N)=O (Ac-SDK(X2)TI-NH2)
(II) C[C@H](NC(=O)[C@H](CCCCNC(=O)Cc1ccc(/N=N/c2ccc(OCc3ccccc3)cc2)cc1)NC(=O)OCc1ccccc1)C(N)=O
# argmax over inhibition for candidates I and II Give the chosen item's label as your response. I
